Consider the following variants; for each one, report its protein stability index.
B1: C8orf76 (parent)
chain: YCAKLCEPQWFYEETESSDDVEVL

- Variants of: B1
- METHOD_DESCRIPTION: protein stability index of a GFP-peptide fusion (GPS, HEK-293T) (PSI 1-6); higher = more stable;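 further: lentivirally expressed fusions sorted by FACS into six bins by GFP to DsRed ratio, PSI derived from sequencing read proportions per bin multiplied by bin number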
- MEASUREMENT_PARAMETERS: c terminus: a fixed tail appended
Numbers only.

Worked examples follow.
YCAKLCLPQWFYEETESSDDVEVL [E7L] = 2.83
YCHKLCEPQWFYEETESSDDVEVL [A3H] = 2.59
PCAKLCEPQWFYEETESSDDVEVL [Y1P] = 4.76
YCAKLCEPMWFYEETESSDDVEVL [Q9M] = 1.88
YIAKLCEPQWFYEETESSDDVEVL [C2I] = 2.65

Need protein stability index for each of these variants.
1. YCAKLCEPQWFYEETESSDDSEVL [V21S]
2. YCAGLCEPQWFYEETESSDDVEVL [K4G]
3. YCAKLCEPQWFYPETESSDDVEVL [E13P]
4. YCAKLCEPQWFKEETESSDDVEVL [Y12K]
5. YCAKLCEPQWFYIETESSDDVEVL [E13I]
6. YCAKLCERQWFYEETESSDDVEVL [P8R]
7. YCAKLCEPKWFYEETESSDDVEVL [Q9K]
8. YCAKLCEPQWFHEETESSDDVEVL [Y12H]

-- reply
1: 2.46; 2: 1.98; 3: 1.92; 4: 2.39; 5: 2.1; 6: 1.86; 7: 2.09; 8: 2.44
